- Tested on: intestinal alkaline phosphatase [Mus musculus]
- Assay Protocol: mouse intestinal phosphatase enzyme activation – biochemical, luminescence, single concentration, confirmation (AID 434970)
- Assay Setup: purified mouse IAP, CDP-Star luminescence, 30 min, at 10 µM; stronger effect = lower value
About 310 (2.8%) of roughly 11,000 compounds were called active. The sample holds actives, similar compounds and a random draw of the others, so the mix is not that of the screen.
Would you mind telling me the reported activity change, negative = activation of each entry?
Numbers only here, please. The scale is %.

Report activity change, negative = activation under test system intestinal alkaline phosphatase [Mus musculus] for `C#CCOCCOCCOCCNc1nc(N2CCN(C(=O)[C@H](Cc3cc4ccccc4[nH]3)n3cc([C@@H](N)CC(C)C)nn3)CC2)nc(N2CCN(C(=O)[C@H](Cc3cc4ccccc4[nH]3)n3cc([C@@H](N)CC(C)C)nn3)CC2)n1` .
-60.9

Report activity change, negative = activation under test system intestinal alkaline phosphatase [Mus musculus] for `Cc1ccc(OCCn2cnc3c(N)ncnc32)cc1` .
6.8

Report activity change, negative = activation under test system intestinal alkaline phosphatase [Mus musculus] for `C=CCONC(=O)Cc1ccccc1` .
-9.55

* * *

Would you mind telling me the reported activation factor of each entry?
- System: intestinal alkaline phosphatase [Mus musculus]
- Assay Protocol: mouse intestinal phosphatase enzyme activation – biochemical, luminescence, single concentration, confirmation (AID 434970)
- Assay Setup: purified mouse IAP, CDP-Star luminescence, 30 min, at 10 µM; measured here: IAP activation factor, stronger effect = higher value
Hit rate of the full screen: of about 11,000 compounds, about 310 (2.8%) were called active. The list comes from a sample in which actives are over-represented; it also holds close analogues and randomly drawn compounds.
Returns: the value as a bare number; no unit string appended.

Provide one value: measured activation factor of CCOC(=O)c1c(C)[nH]c(C(=O)COC(=O)C2CC(=O)N(Cc3ccccc3)C2)c1C (stereo unspecified)
0.964

Provide one value: measured activation factor of `Cc1cc(C)cc(NC(=O)NCc2c(-c3ccccc3)noc2C)c1`
2.73

Provide one value: measured activation factor of `O=C(Nc1cccc(Cl)c1)Nc1nnc(-c2ccccc2)o1`
1.02

Provide one value: measured activation factor of `Cc1onc(-c2ccccc2)c1CNC(=O)Nc1ccc(C(F)(F)F)cc1`
1.99

Provide one value: measured activation factor of `C=CCn1c(C)cc(C(=O)COC(=O)COc2ccccc2C#N)c1C`
0.919

Provide one value: measured activation factor of `COc1ccc(C(=O)O)cc1S(=O)(=O)Nc1cccc(C)c1`
0.988

* * *

- Tested on: intestinal alkaline phosphatase [Mus musculus]
- Assay Protocol: mouse intestinal phosphatase enzyme activation – biochemical, luminescence, single concentration, confirmation (AID 434970)
- Assay Setup: purified mouse IAP, CDP-Star luminescence, 30 min, at 10 µM; stronger effect = lower value
Screen size: about 11,000 compounds; about 310 (2.8%) were called active. Shown is part of a subset that was picked to be rich in actives.
Would you mind telling me the reported activity change, negative = activation of each entry?
Numbers only here, please. The scale is %.

Provide one value: measured activity change, negative = activation of `O=C(CCCc1ccccc1)Nc1ccnn1C1CCN(Cc2ccc(Cl)cc2)CC1`
-118

Provide one value: measured activity change, negative = activation of `COc1ccc(CN2CCC(n3nccc3NC(=O)CCc3ccccc3)CC2)c(C)c1C`
-60

Provide one value: measured activity change, negative = activation of `CCOc1cccc(CN2CCC(n3nccc3NC(=O)CCCc3ccccc3)CC2)c1`
-130

Provide one value: measured activity change, negative = activation of `COc1ccc(Cl)cc1NC(=O)CN1CCC(n2nnc3ccccc32)CC1`
4.05

Provide one value: measured activity change, negative = activation of `CNC[C@H]1Oc2ccc(NC(=O)Nc3ccc(OC)cc3)cc2C(=O)N([C@@H](C)CO)C[C@H]1C`
-123

Provide one value: measured activity change, negative = activation of `Cc1cc(C)c2c(-n3cccc3)c(C(=O)NNS(=O)(=O)c3ccc(Br)cc3)sc2n1`
13.5

Provide one value: measured activity change, negative = activation of CC(OC(=O)c1cccs1)C(=O)NCC1CCCO1 (configuration not stated)
-9

Provide one value: measured activity change, negative = activation of `Cc1oc(S(=O)(=O)N2CCCCC2)cc1NC(=O)Nc1ccc(Cl)cc1`
-41.8

Provide one value: measured activity change, negative = activation of `COc1ccc(C(=O)Nc2cccc(C(C)=O)c2)c(OC)c1OC`
4.95

Provide one value: measured activity change, negative = activation of `O=C(NNS(=O)(=O)c1ccc(Cl)cc1)C1CCN(Cc2ccccc2)CC1`
-9.8

Provide one value: measured activity change, negative = activation of `COc1ccccc1CN1CCC(n2nccc2NC(=O)CCCc2ccccc2)CC1`
-108

Provide one value: measured activity change, negative = activation of `CNC[C@H]1Oc2ccc(NC(=O)Nc3ccc4c(c3)OCO4)cc2C(=O)N([C@H](C)CO)C[C@@H]1C`
-47.9

Provide one value: measured activity change, negative = activation of `CCOC(=O)CN(C(=O)CN1CCC(n2nnc3cc(C)ccc32)CC1)c1ccccc1`
1.8

Provide one value: measured activity change, negative = activation of `Cc1ccc(-c2nnn(CC(=O)NC3CCN(Cc4ccccc4)CC3)n2)cc1`
-4.25

Provide one value: measured activity change, negative = activation of `CCOc1ccc(CN2CCC(n3nccc3NC(=O)CCCc3ccccc3)CC2)cc1`
-83

Provide one value: measured activity change, negative = activation of `O=C(Nc1ccc(Cl)c(Cl)c1)Nc1cc(S(=O)(=O)N2CCOCC2)ccc1N1CCCC1`
-153

Provide one value: measured activity change, negative = activation of `COc1ccccc1CN1CCN(S(=O)(=O)c2ccccc2)CC1`
10.3

* * *

- System: intestinal alkaline phosphatase [Mus musculus]
- Assay Protocol: mouse intestinal phosphatase enzyme activation – biochemical, luminescence, single concentration, confirmation (AID 434970)
- Assay Setup: purified mouse IAP, CDP-Star luminescence, 30 min, at 10 µM; measured here: IAP activation factor, stronger effect = higher value
Out of some 11,000 compounds screened, about 310 (2.8%) were called active. Many of the other results were omitted from the sample, so actives are more common in it than they were.
Would you mind telling me the reported activation factor of each entry?
Returns: the value as a bare number; no unit string appended.

Provide one value: measured activation factor of `Cc1ccc(NC(=O)Nc2ccc(F)cc2)cc1Cl`
1.51

Provide one value: measured activation factor of CCOP(=O)(OCC)C(NC(=O)Nc1ccc(Cl)cc1)c1ccccc1 (stereo not drawn)
1.56

Provide one value: measured activation factor of `Cc1cccc(NC(=O)NCCCCc2ccccc2)c1`
2.38

Provide one value: measured activation factor of `COc1cccc(NC(=O)Nc2cc(Cl)ccc2C)c1`
1.41

Provide one value: measured activation factor of `O=C(NCCCCc1ccccc1)Nc1cccc(F)c1`
2.29

Provide one value: measured activation factor of CC(CCc1ccccc1)NC(=O)c1ccncc1 (stereo not drawn)
0.938

Provide one value: measured activation factor of `O=[N+]([O-])c1ccc2n[nH]nc2c1`
1.02

Provide one value: measured activation factor of `O=S(=O)(NCc1cccs1)c1cccc(S(=O)(=O)N2CCCCC2)c1`
0.903

Provide one value: measured activation factor of Cc1cccc(NC(=O)NC(C)CCc2ccccc2)c1 (stereo not drawn)
2.83

Provide one value: measured activation factor of `O=C(CN1CCN(Cc2ccccc2Cl)C1=O)NCc1ccco1`
0.935

Provide one value: measured activation factor of `O=C(NCCc1ccncc1)Nc1ccc(Cl)cc1`
1.09

Provide one value: measured activation factor of `CC(=O)Nc1cccc(NC(=O)Nc2ccc(C)c(Cl)c2)c1`
1.9

Provide one value: measured activation factor of `NC1=NC2(CCCCC2)N(c2ccc(F)cc2)C(N)=N1`
0.95

Provide one value: measured activation factor of CC(Sc1nc2ccccc2n1C)C(=O)NC(c1ccccc1)c1ccccc1 (stereo not drawn)
0.982

Provide one value: measured activation factor of `COc1ccc(N2CCN(C(=O)Nc3cccc(C(F)(F)F)c3)CC2)cc1`
1.14

Provide one value: measured activation factor of `Cc1ccc(NC(=O)NCCCc2ccccc2)cc1`
1.29

Provide one value: measured activation factor of `CCc1ccc(NC(=O)Nc2cccc(OC)c2)cc1`
1.62

Provide one value: measured activation factor of CCOP(=O)(OCC)C(NC(=O)Nc1ccc(C)c(Cl)c1)c1ccccc1 (stereo not drawn)
2.59

* * *

- Test system: intestinal alkaline phosphatase [Mus musculus]
- Assay Protocol: mouse intestinal phosphatase enzyme activation – biochemical, luminescence, single concentration, confirmation (AID 434970)
- Assay Setup: purified mouse IAP, CDP-Star luminescence, 30 min, at 10 µM; measured here: IAP activation factor, stronger effect = higher value
The whole screen tested about 11,000 compounds, of which about 310 (2.8%) were called active. The list comes from a sample in which actives are over-represented; it also holds close analogues and randomly drawn compounds.
Would you mind telling me the reported activation factor of each entry?
Returns: the value as a bare number; no unit string appended.

Report activation factor under test system intestinal alkaline phosphatase [Mus musculus] for `NC(=O)c1c(NC(=O)CSc2nnc(-c3ccco3)n2-c2ccccc2)sc2c1CCC2` .
0.759

Report activation factor under test system intestinal alkaline phosphatase [Mus musculus] for `Cc1ccc(C)c(CN2CCC(n3nccc3NC(=O)CCCc3ccccc3)CC2)c1` .
2.31

Report activation factor under test system intestinal alkaline phosphatase [Mus musculus] for `O=C(NC1CCCCCCC1)c1cnccn1` .
0.972

Report activation factor under test system intestinal alkaline phosphatase [Mus musculus] for `Cc1ccc(-c2nnn(CC(=O)N3CCCc4ccccc43)n2)cc1` .
1.06

Report activation factor under test system intestinal alkaline phosphatase [Mus musculus] for `COc1ccccc1CN1CCC(n2nccc2NC(=O)CCCc2ccccc2)CC1` .
2.08

Report activation factor under test system intestinal alkaline phosphatase [Mus musculus] for Cc1ccc(CC(NC(=O)C2CCCCC2)C(=O)O)cc1 (stereo not given) .
1.07

Report activation factor under test system intestinal alkaline phosphatase [Mus musculus] for `COc1cc(-c2nnc(COC(=O)CSc3cc(C)c4ccccc4n3)o2)cc(OC)c1OC` .
0.99

Report activation factor under test system intestinal alkaline phosphatase [Mus musculus] for CCOC(=O)C1(C)/C(=N/Nc2ccccc2Cl)C(=O)C(=O)N1c1ccccc1 (stereo not given) .
0.886

Report activation factor under test system intestinal alkaline phosphatase [Mus musculus] for `CCN([C@H](CO)CC(C)C)S(=O)(=O)c1ccccc1` .
1.09

Report activation factor under test system intestinal alkaline phosphatase [Mus musculus] for `CSCC[C@H](NC(=O)C1CCN(S(=O)(=O)c2ccc(C)cc2C)CC1)c1nc2ccccc2[nH]1` .
2.02

Report activation factor under test system intestinal alkaline phosphatase [Mus musculus] for `O=C(CCc1nc2ccccc2c(=O)[nH]1)NC1CCN(Cc2ccccc2)CC1` .
0.905

Report activation factor under test system intestinal alkaline phosphatase [Mus musculus] for `COc1ccc(CN2CCC(n3nccc3NC(=O)CCCc3ccccc3)CC2)cc1C` .
2.4

Report activation factor under test system intestinal alkaline phosphatase [Mus musculus] for `C#CCOCCOCCOCCNc1nc(N2CCN(C(=O)CCCCCCCCCCNC(=O)[C@H]([C@@H](C)CC)n3cc(CCCCCN)nn3)CC2)nc(N2CCN(C(=O)CCCCCCCCCCNC(=O)[C@H](CCCCN)n3cc(CCCC(=O)O)nn3)CC2)n1` .
3.22

Report activation factor under test system intestinal alkaline phosphatase [Mus musculus] for `Cc1noc2ncnc(Sc3c(Cl)cccc3Cl)c12` .
0.906

Report activation factor under test system intestinal alkaline phosphatase [Mus musculus] for `O=C(Cc1ccc(Cl)cc1)Nc1cccc(S(=O)(=O)N2CCCCC2)c1` .
1.4

Report activation factor under test system intestinal alkaline phosphatase [Mus musculus] for `O=C(Nc1cccc(S(=O)(=O)N2CCCCC2)c1)Nc1ccc(Cl)cc1Cl` .
4.41

Report activation factor under test system intestinal alkaline phosphatase [Mus musculus] for `O=C(NNS(=O)(=O)c1ccc(Cl)cc1)C1CCN(Cc2ccccc2)CC1` .
1.1

Report activation factor under test system intestinal alkaline phosphatase [Mus musculus] for `C#CCOCCOCCOCCNc1nc(N2CCN(C(=O)CCCCCCCCCCNC(=O)[C@H](CCCN=C(N)N)n3cc(C[C@@H](C)CC)nn3)CC2)nc(N2CCN(C(=O)CCCCCCCCCCNC(=O)[C@@H]([C@H](C)CC)n3cc(CCCCCN)nn3)CC2)n1` .
6.19

Report activation factor under test system intestinal alkaline phosphatase [Mus musculus] for `Cc1ccc(-c2nnn(CC(=O)NC3CCN(Cc4ccccc4)CC3)n2)cc1` .
1.04

Report activation factor under test system intestinal alkaline phosphatase [Mus musculus] for `Cc1ccc(S(=O)(=O)N2CCN(C(=O)CSc3nc4ccccc4c(=O)[nH]3)CC2)c(C)c1` .
1.1

Report activation factor under test system intestinal alkaline phosphatase [Mus musculus] for `Cc1cc(=O)n(CCO)c(O)c1C#N` .
1.02

Report activation factor under test system intestinal alkaline phosphatase [Mus musculus] for `O=C(c1cccs1)n1nc(-c2ccccc2)nc1NCc1ccco1` .
0.857

Report activation factor under test system intestinal alkaline phosphatase [Mus musculus] for `O=C(Nc1ccc(Cl)cc1Cl)NC1CCN(S(=O)(=O)c2ccc(F)cc2)CC1` .
2.16

Report activation factor under test system intestinal alkaline phosphatase [Mus musculus] for CSCCC(NC(=O)c1ccc(=O)n(C)n1)c1nc2ccccc2[nH]1 (stereo not given) .
0.931

Report activation factor under test system intestinal alkaline phosphatase [Mus musculus] for `CC(C)Cc1ccc(CN2CCC(n3nccc3NC(=O)C3CCCC3)CC2)cc1` .
1.98

Report activation factor under test system intestinal alkaline phosphatase [Mus musculus] for COc1cccc(CNC(=O)c2ccc(NC(=O)C3CCCO3)cc2)c1 (stereo not given) .
0.932

Report activation factor under test system intestinal alkaline phosphatase [Mus musculus] for `O=C1NC2(CCCCC2)C(=O)N1c1ccccc1` .
1.08

Report activation factor under test system intestinal alkaline phosphatase [Mus musculus] for COc1ccc(C2C(C(=O)N3CCCC3)c3cc(OC)c(OC)cc3C(=O)N2C)cc1 (stereo not given) .
0.989

Report activation factor under test system intestinal alkaline phosphatase [Mus musculus] for `COc1ccc(Cl)cc1NC(=O)CN1CCC(n2nnc3ccccc32)CC1` .
0.96

Report activation factor under test system intestinal alkaline phosphatase [Mus musculus] for `O=C(c1ccc(F)cc1)N1CCN(c2cc(=O)[nH]nc2-c2ccccc2)CC1` .
1.17
